Test system: NCI-H2347 (Lung Adenocarcinoma);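 note: after 72 h of two-drug dosing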
Test: Bliss excess, mean over the matrix (fraction); higher = more synergy
Measured property: Bliss excess

Compound	Measured property	Reported value
CN(C)CCCOc1ccc(-c2ccc3ncc4c(c3c2)n(C2CCOCC2)c(=O)n4C)cn1 [AZD0156] + C[C@@H]1COCCN1C2=NC(=NC(=C2)C3(CC3)[S@](=N)(=O)C)C4=C5C=CNC5=NC=C4 [AZD6738] (first compound max 1 µM, 7x7, partner max 10 µM)	Bliss excess	-0.049
CC1(C)CCC(CN2CCN(c3ccc(C(=O)NS(=O)(=O)c4ccc(NCC5CCOCC5)c([N+](=O)[O-])c4)c(Oc4cnc5[nH]ccc5c4)c3)CC2)=C(c2ccc(Cl)cc2)C1 [Venetoclax] + COc1cc(Nc2ncc3c(n2)-c2ccc(Cl)cc2C(c2c(F)cccc2OC)=NC3)ccc1C(=O)O [Alisertib] (first compound max 1 µM, 7x7, partner max 10 µM)	Bliss excess	-0.0487
CC(=O)c1c(C)c2cnc(Nc3ccc(N4CCNCC4)cn3)nc2n(C2CCCC2)c1=O [Palbociclib] + Cc1c2c(nn1C)CSCc1cc(n(C)n1)CSc1cc(c3ccccc3c1)OCCCc1c(C(=O)O)n(C)c3c-2c(Cl)ccc13 [AZD5991] (first compound max 10 µM, 7x7, partner max 1 µM)	Bliss excess	-0.0677
NC1(C(=O)N[C@@H](CCO)c2ccc(Cl)cc2)CCN(c2ncnc3[nH]ccc23)CC1 [Capivasertib] + COc1nnc2ccc(N3CCC(c4ccc(OCCN5CCN(C)C(=O)[C@H]5C)cc4)CC3)nn12 [AZD5153] (first compound max 10 µM, 7x7, partner max 1 µM)	Bliss excess	-0.033
COc1cc2ncnc(Nc3ccc(F)c(Cl)c3)c2cc1OCCCN1CCOCC1 [Gefitinib] + CC(C)n1c(=O)n(C)c2cnc3cc(F)c(-c4ccc(OCCCN5CCCCC5)nc4)cc3c21 [AZD1390] (first compound max 10 µM, 7x7, partner max 0.3 µM)	Bliss excess	-0.0771
CCN(CCO)CCCOc1ccc2c(Nc3cc(CC(=O)Nc4cccc(F)c4)[nH]n3)ncnc2c1 [AZD2811] + O=C(c1cc(Cc2n[nH]c(=O)c3ccccc23)ccc1F)N1CCN(C(=O)C2CC2)CC1 [Olaparib] (first compound max 1 µM, 7x7, partner max 10 µM)	Bliss excess	-0.0303
CS(=O)(=O)CCNCc1ccc(-c2ccc3ncnc(Nc4ccc(OCc5cccc(F)c5)c(Cl)c4)c3c2)o1 [Lapatinib] + C[C@@H](Oc1cc(-c2cnn(C3CCNCC3)c2)cnc1N)c1c(Cl)ccc(F)c1Cl [Crizotinib] (first compound max 10 µM, 7x7, partner max 10 µM)	Bliss excess	-0.0421
Cc1cc2ncnn2cc1Nc1ncc2c(n1)n(C1CCOCC1)c(=O)n2C [AZD7648] + C=CCn1c(=O)c2cnc(Nc3ccc(N4CCN(C)CC4)cc3)nc2n1-c1cccc(C(C)(C)O)n1 [AZD1775] (first compound max 10 µM, partner max 1 µM)	Bliss excess	-0.0279
